Numbers sourced from ChEMBL document CHEMBL1147363.

target: UniProtKB Q9YQ12; experiment: Inhibition of HIV1 recombinant protease expressed in Escherichia coli BL21 (DE3) cells by SDS-PAGE
Sequence (Q9YQ12 as listed by the source): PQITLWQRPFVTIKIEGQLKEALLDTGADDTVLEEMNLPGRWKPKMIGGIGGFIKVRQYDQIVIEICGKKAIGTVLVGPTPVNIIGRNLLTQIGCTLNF
READOUT LABEL: IC90 (µg/mL)

CO[C@H]1c2cc(C(C)C)c(O)c(O)c2[C@@]23CCCC(C)(C)[C@@H]2[C@@H]1OC3=O ... 1.5
CC(C)c1cc2c(c(O)c1O)[C@@]13CCCC(C)(C)[C@@H]1[C@H](OC3=O)[C@H]2O ... 0.6
CC(C)c1cc2c(c(O)c1O)[C@@]1(C(=O)O)CCCC(C)(C)[C@@H]1CC2 ... 0.08
CCO[C@H]1c2cc(C(C)C)c(O)c(O)c2[C@@]23CCCC(C)(C)[C@@H]2[C@@H]1OC3=O ... 1.7
